This collection of values is drawn from paper PMC10021056.

molecular target: postfusion Nipah virus fusion (F) glycoprotein, construct NiVF_postfusion (Nipah virus, Malaysian strain, stabilised)
VALUE TYPE: binding result

BINDER	VALUE TYPE	RESULT
201805_NiV_PL4_E11 (antibody, V domains shown) VH: QVQLQQSGAELVKPGASVKLSCKASGYTFTNYDINWVRQRPEQGLEWIGWIFPGDGTTSYNEKFKDKATLTTDKSSSTAYMQLSRLTSEDSTVYFCARLGWGGAMDYWGQGTSVTVSA VL: YTLMTQSPLSLPVSLGDQASISCRSSQSIVHSNGNTYLQWYLQKPGQSPKLLIYKVSNRFSGVPDRFSGSGSGTDFTLKISRVEAEDLGVYYCFQGSHVPYTFGGGPSNKR	binding result	binds
